Data provenance: PubChem BioAssay (NCI)

tested on: MALME-3M melanoma; test: NCI tumour cell line growth inhibition, 48 h; in the data active = GI50 below about 0.43 µM; inactive = the rest
Write down one outcome, taken from active, inactive

Known results for compounds:
{"COMPOUND": "Cc1nc2n(c(=O)c1CCN1CCC(c3noc4cc(F)ccc34)CC1)CCCC2", "LABEL_VALUE": "inactive"}
{"COMPOUND": "N#Cc1ccc(C(c2ccc(C#N)cc2)n2cncn2)cc1", "LABEL_VALUE": "inactive"}
{"COMPOUND": "O=C(O)C1(Cc2cccc(Nc3nccs3)n2)CCC(Oc2cccc(Cl)c2F)CC1 (stereo not given)", "LABEL_VALUE": "inactive"}
{"COMPOUND": "O=[N+]([O-])c1ccc2ncccc2c1Cl", "LABEL_VALUE": "inactive"}
{"COMPOUND": "CCN1C(=O)N(c2ccccc2)C2NN=c3s/c(=C4\\C(=O)N(C(C)C)c5ccccc54)c(=O)n3C21 (stereo not given)", "LABEL_VALUE": "inactive"}
{"COMPOUND": "CC(=O)OCC1O[C@@H]([S-])C(OC(C)=O)[C@H](OC(C)=O)[C@@H]1OC(C)=O.[Au+].c1ccc(CN2[CH-]N(Cc3ccccc3)C(c3ccccc3)=C2c2ccccc2)cc1", "LABEL_VALUE": "inactive"}

// return assay outcome for `C#CCOc1cccc(Nc2ncnc3ccc(NC(=O)CCl)cc23)c1`
inactive

// return assay outcome for `CCOC(=O)c1cc2c(n1Cc1ccccc1)-c1oncc1CC2`
inactive

// return assay outcome for O=C1c2c(O)cc(O)cc2OC(c2ccc(O)cc2O)C1O (stereo not given)
inactive

// return assay outcome for `COc1cc2nc3cc([N+](=O)[O-])ccc3c(NCCCNCC(C)(C)O)c2cc1OC`
active

---

test system: OVCAR-5 ovarian; assay: NCI tumour cell line growth inhibition, 48 h
Items are presented alongside their recorded GI50.

Below, 5 molecules whose answers are already recorded.
{"MOLECULE": "CC1=C[S+](c2ccccc2)c2cccc3cc4ccccc4c1c23 (stereo unspecified)", "GI50": "1110 nM"}
{"MOLECULE": "CCC(C(=O)[O-])C(=O)[O-].CCC(C(=O)[O-])C(=O)[O-].N.N.NCCCCCCN.[Pt+4].[Pt+4]", "GI50": "10700 nM"}
{"MOLECULE": "CCOC(=O)Nc1ccc(-c2nc(-c3cccc(OC)c3)c(-c3ccnc(Br)c3)[nH]2)cc1", "GI50": "3560 nM"}
{"MOLECULE": "C[C@H]1C(Oc2ccc(O)cc2)OC2OC3(C)CCC4[C@H](C)CCC1C24OO3 (stereo partly specified)", "GI50": "10400 nM"}
{"MOLECULE": "CCCCCCCC(=O)SCC/C=C/[C@@H]1CC(=O)NCc2nc(co2)C2=N[C@@](C)(CS2)C(=O)N[C@@H](C(C)C)C(=O)O1", "GI50": "8.49 nM"}

Form field: reported GI50 of `COc1cc2nc3cc([N+](=O)[O-])ccc3c(NCCCNCC(C)(C)O)c2cc1OC`
465 nM

---

test system: BT-549 breast; test: NCI tumour cell line growth inhibition, 48 h; in the data active = GI50 below about 0.43 µM; inactive = the rest
Write down one outcome, taken from Yes for active, No for inactive

Known results for compounds:
{"COMPOUND": "O=C1CCc2c(sc3[nH]c(=S)n(Cc4ccccc4)c(=O)c23)C1", "LABEL_VALUE": "No"}
{"COMPOUND": "CCCCCCCC(=O)SCC/C=C/[C@@H]1CC(=O)NCc2nc(co2)C2=N[C@@](C)(CS2)C(=O)N[C@@H](C(C)C)C(=O)O1", "LABEL_VALUE": "Yes"}
{"COMPOUND": "CNCCCNc1nc2ccccc2c2c(=O)c3cc(Cl)ccc3sc12", "LABEL_VALUE": "No"}
{"COMPOUND": "Cc1ccc(S(=O)(=O)Cc2nc(-c3ccc(C(=O)NCc4cccnc4)cc3)oc2C)cc1", "LABEL_VALUE": "No"}
{"COMPOUND": "O=C(O)C1(Cc2cccc(Nc3nccs3)n2)CCC(Oc2cccc(Cl)c2F)CC1 (stereo not given)", "LABEL_VALUE": "No"}

// return assay outcome for CCC1CCc2nc3sc(C(=O)Nc4ccccc4C)c(N)c3cc2C1 (stereo not given)
No

// return assay outcome for `C/C(=C\c1ccc(Cl)c(Cl)c1)[N+](=O)[O-]`
No

// return assay outcome for `CCCCC#CC#Cc1cccc(=O)o1`
No

// return assay outcome for `COc1ccc(-c2ccc(/C=N/n3c(C)nn(CN4CCN(C)CC4)c3=S)o2)c([N+](=O)[O-])c1`
No

// return assay outcome for `O=C(CCCCCCSc1nc(-c2ccc(Cl)cc2)cc(-c2ccc(Cl)cc2)n1)NO`
No
